Recorded inhibition for the following molecules
tested on: T-cell receptor (TCR); experiment: small molecules blocking TCR binding to CD3 – biochemical, fluorescence, TAMRA-labeled TCR probe, primary screen (AID 651800); settings: at 9.4 µM, stronger effect = higher value;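 further: recombinant mutant TCR 2C K166C tagged with TAMRA read by polarization; 0% = receptor in buffer alone and 100% = receptor with positive control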
In all, about 360,000 compounds went through this assay and about 1,300 (0.36%) were called active. The entries come from a sample that favours actives as a whole.

MOLECULE	inhibition [%]
O=C(NNC1=NCCC1)c1cccc(S(=O)(=O)N2CCCCC2)c1	-7.2
COC(=O)Cc1nnn2c1[C@H](C)[C@H](c1ccccc1[N+](=O)[O-])OCC2	1.45
Nc1nc2c(ncn2[C@@H]2O[C@H](C(=O)N[C@H](Cc3ccccc3)C(=O)NCC3CCCCC3)[C@@H](O)[C@H]2O)c(=O)[nH]1	-5.72
Cc1ccc(-c2nn(-c3ccccc3)cc2/C=C/C(=O)Nc2cccc(S(N)(=O)=O)c2)cc1	83.6
C#CCOCCOCCOCCNc1nc(N2CCN(C(=O)C([C@@H](C)CC)n3cc(C(N)COC(=O)C(F)(F)F)nn3)CC2)nc(N2CCN(C(=O)[C@H](Cc3ccc(O)cc3)n3cc(C(N)[C@H](C)CC)nn3)CC2)n1 (stereo partly drawn)	1.55
COc1ccc(-c2ccccc2C2Cc3nnccc3CN2C(=O)Nc2ccccc2)cc1 (stereo not drawn)	-1.6
CNC(=S)NNC(=O)c1cccn(Cc2ccccc2)c1=O	45.4
Cc1ncc(CO)c(/C=N/NC(=O)c2cccc(S(=O)(=O)N3CCCC3)c2)c1O	27.1

====

tested on: T-cell receptor (TCR); test: small molecules blocking TCR binding to CD3 – biochemical, fluorescence, TAMRA-labeled TCR probe, primary screen (AID 651800); conditions: at 9.4 µM, stronger effect = higher value
The whole screen tested about 360,000 compounds, of which about 1,300 (0.36%) were called active. The sample as a whole holds a higher share of actives than the screen did.
PROPERTY NAME: inhibition (%)

COMPOUND	PROPERTY NAME	OBSERVED VALUE
COC(=O)[C@]12C[C@H](CC(=O)NCCc3ccccc3OC)C(=O)N(Cc3ccccc3)C1=C[C@H](C(C)C)O[C@@H]2C1CC1	inhibition	0.38
O=C(NNC(=O)c1ccccc1O)c1ccccc1O	inhibition	40
O=C1[C@@H](c2ccccc2)[C@@H](c2ccccc2)N1c1ccccc1	inhibition	4.73
COCCOC(=O)c1sc(=S)n(CCOC)c1N	inhibition	38.1
COC(=O)C1=C(C)N(Cc2ccc(C(F)(F)F)cc2)C(=NCc2ccccc2)NC1c1ccccc1C(F)(F)F (centres undefined)	inhibition	-1.22
O=[N+]([O-])c1cc(Cl)cc(/C=N/NC(=S)Nc2cc(S(=O)(=O)N3CCOCC3)ccc2Cl)c1O	inhibition	41.3
COc1ccc(C(=O)NCC[N+](C)(C)C)cc1	inhibition	-6.67
COc1ccc(C(=O)NNc2cc(C)nc(NNC(=O)c3ccc(OC)cc3)n2)cc1	inhibition	19.4
CCOC(=O)CNC(=O)N(C)[C@H]1C[C@H]2c3[nH]c4c(-c5ccc6c(c5)OCO6)cccc4c3CCN2C(=O)[C@H]1[C@H](C)O	inhibition	-3.41
COc1ccc2c(-c3ccccc3)cc(SCC(=O)N(C)C3CCS(=O)(=O)C3)nc2c1 (centres undefined)	inhibition	1.46
COc1ccc(NS(=O)(=O)c2cc(NC(=O)c3ccc(S(=O)(=O)N(C)C)cc3)ccc2N2CCOCC2)cc1	inhibition	1.69
Cc1ccccc1C(=O)NNC(=O)CN1C(=O)c2ccccc2C1=O	inhibition	-5.72
Cc1nn(Cc2ccc(Cl)cc2)c(Cl)c1/C=N/NC(=O)CNc1ccccc1F	inhibition	4.16
C[C@@H](CN1C2=NC[C@@H](Cc3ccccc3)N2C[C@H]1Cc1ccc(O)cc1)NC(=O)CCC1CCCCC1	inhibition	-8.44
COC(=O)c1cc(Oc2ccc(S(=O)(=O)N3CCOCC3)cc2[N+](=O)[O-])cc(C(=O)OC)c1	inhibition	7.58
COc1ccc(NS(=O)(=O)c2cc(NC(=O)/C=C/c3cc(OC)c(OC)c(OC)c3)ccc2N2CCCCC2)cc1	inhibition	22.8
Cc1cc(OCCCC(=O)Nc2cc(S(=O)(=O)N3CCOCC3)ccc2N2CCOCC2)ccc1Cl	inhibition	0.46
Cc1ccccc1NCC(=O)N/N=C\c1ccc([N+](=O)[O-])s1	inhibition	21.7
O=C(O)Cn1cnc2c(NCc3ccccc3)ncnc21	inhibition	-4.94

====

test system: T-cell receptor (TCR); test: small molecules blocking TCR binding to CD3 – biochemical, fluorescence, TAMRA-labeled TCR probe, primary screen (AID 651800); details: at 9.4 µM
Screen size: about 360,000 compounds; about 1,300 (0.36%) were called active. No stated cut-off is given here; in the data, active means inhibition above about 19%; inactive means the rest. The full list was thinned out, with actives kept by preference.
Possible outcomes: true for active, false for inactive

COMPOUND	LABEL VALUE
Cc1c(CC(=O)N2CCN(C(=O)C3COc4ccccc4O3)CC2)c(=O)oc2c(O)c(O)ccc12 (centres undefined)	true
CC(C)C[C@H](NC(=O)CC1CCCC1)C(=O)N1CCC[C@H]1C(=O)NCc1ccccc1	false
C[C@H]1CN([C@@H](C)CO)C(=O)CCCn2nncc2CO[C@@H]1CN(C)C(=O)Nc1ccc(N2CCN(C)CC2)cc1	false
Cc1ccc(S(=O)(=O)NCCC(=O)NNC(=O)C2COc3ccccc3O2)cc1 (centres undefined)	false
CC1CCCN(c2cccc3c2S(=O)(=O)N(Cc2ccc(F)cc2)[C@@H](C)[C@H](c2ccccc2)O3)C1 (some centres undefined)	false
Cc1ccccc1C(=O)N[C@H](C(=O)N1CCC[C@H]1C(=O)NCc1ccccc1)C(C)C	false
N#Cc1ccc(-c2nc3cc(C#N)c(C#N)cc3nc2-c2ccccc2)cc1C#N	false
C=CCN=C1NC(c2cccc(C(F)(F)F)c2)C(C(=O)OC)=C(C)N1C (centres undefined)	false
Cc1cc2nc3c(=O)[nH]c(=O)nc-3n(C[C@H](O)[C@H](O)[C@H](O)CO)c2cc1C	true

====

Attribute: inhibition
system: T-cell receptor (TCR); test: small molecules blocking TCR binding to CD3 – biochemical, fluorescence, TAMRA-labeled TCR probe, primary screen (AID 651800); conditions: at 9.4 µM, stronger effect = higher value;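 further: recombinant mutant TCR 2C K166C tagged with TAMRA read by polarization; 0% = receptor in buffer alone and 100% = receptor with positive control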
The whole screen tested about 360,000 compounds, of which about 1,300 (0.36%) were called active. This excerpt belongs to a sample that is enriched for actives.

COMPOUND	VALUE UNITS	inhibition
CCOC(=O)c1c(N)c(C#N)nn1-c1ccccc1C(=O)OC	%	-3.5
CC(=O)c1ccc(S(=O)(=O)NCC2CCN(C(=O)C(=O)c3cccs3)CC2)cc1	%	-11.4
CNC(=S)NNC(=O)c1ccc(N(C)C)cc1	%	5.64
CN(C)c1ccc(/C=N/NC(=O)C(O)c2ccc(Br)cc2)cc1 (stereo unspecified)	%	4.89
CN(C)c1ccc(N/C=C/C(=O)C(F)(F)F)cc1	%	20.8
COC(=O)c1c(-c2ccc(OC)cc2)c2c(c3c4cc(OC)ccc4n(S(=O)(=O)c4ccc(F)cc4)c13)C(=O)N(C)C2	%	-4.92

====

tested on: T-cell receptor (TCR); test: small molecules blocking TCR binding to CD3 – biochemical, fluorescence, TAMRA-labeled TCR probe, primary screen (AID 651800); settings: at 9.4 µM, stronger effect = higher value;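 further: recombinant mutant TCR 2C K166C tagged with TAMRA read by polarization; 0% = receptor in buffer alone and 100% = receptor with positive control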
Hit rate of the full screen: of about 360,000 compounds, about 1,300 (0.36%) were called active. The sample holds actives, similar compounds and a random draw of the others, so the mix is not that of the screen.

STRUCTURE AS SMILES	inhibition [%]
COc1ccccc1CCC(=O)NNC(=O)c1ccncc1	1.16
Oc1ccc(N=Cc2c(O)ccc3ccccc23)cc1	44.6
COc1ccc(C(=O)NC(=S)NNC(=O)CCc2ccccc2)cc1	101
COc1ccc(/C(N)=N/OC(=O)CCCc2ccccc2)cc1	3.62
COC(=O)Cc1nnn2c1[C@H](C)[C@H](c1ccccc1Br)OCC2	-3.6
C/C=C/C=C/C(=O)O	27.1

====

system: T-cell receptor (TCR); test: small molecules blocking TCR binding to CD3 – biochemical, fluorescence, TAMRA-labeled TCR probe, primary screen (AID 651800); settings: at 9.4 µM, stronger effect = higher value;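 further: recombinant mutant TCR 2C K166C tagged with TAMRA read by polarization; 0% = receptor in buffer alone and 100% = receptor with positive control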
The whole screen tested about 360,000 compounds, of which about 1,300 (0.36%) were called active. Only a selection was taken, and actives are over-represented in it overall.
The following molecules are shown together with reported inhibition values.

MOLECULE	inhibition (%)
COC(=O)c1cc2c(c3c4ccccc4n(S(=O)(=O)c4cccc(C)c4)c13)C(=O)N(Cc1ccccc1)C2	-0.99
CCCCNC(=S)NNC(=O)c1cc(C)on1	11.9
CNC(=S)NNC(=O)c1oc2nc(-c3ccccc3)cc(-c3ccco3)c2c1N	59.3
CN1C(=O)C(Br)(Br)CC1c1cccnc1 (centres undefined)	-8.3
COc1cccc2cc(C(N)=O)/c(=N\NC(=O)c3ccccc3)oc12	6.06
CC[C@H](NC(=O)[C@H](Cc1ccccc1)NC(=O)[C@H]1O[C@@H](n2cnc3c(=O)[nH]c(N)nc32)[C@H](O)[C@@H]1O)c1ccccc1	1.67
COCCCNC(=S)N(Cc1ccccc1)Cc1ccc(F)cc1	-3.1
COC(=O)[C@]12C[C@H](CC(=O)N3CCN(C(=O)C4CC4)CC3)C(=O)N(Cc3ccc4c(c3)OCO4)C1=C[C@H](C(C)(C)C)O[C@@H]2C	3.03
C=C1c2c(Cl)ccc(O)c2C(O)=C2C(=O)[C@]3(O)C(O)=C(C(N)=O)C(=O)[C@@H](N(C)C)[C@@H]3[C@@H](O)C12 (some centres undefined)	33.5
COCCNC(=O)COc1ccc(N(C)S(=O)(=O)c2ccc3ccccc3c2)cc1	-0.41
Cc1cccc(C(=O)Nc2ccc3c(c2)C(=O)N(CC(C)C)C3=O)c1	-1.41
CCCCNc1cccc2c1S(=O)(=O)N[C@@H](C)CO2	2.35
C=CCn1c(=O)c(C(=O)Nc2ncccc2O)c(O)c2ccccc21	29.1
COC(=O)C1=C(C)N(Cc2cccc(C(F)(F)F)c2)C(=NCc2ccccc2)NC1c1ccc(Cl)cc1 (centres undefined)	7.39
CC(C)[C@H]1COCCS(=O)(=O)N1Cc1ccccc1-c1cccc2c1sc1ccccc12	-8.35
CC1CCN(C(=O)c2ncn3c2C(=O)N[C@@H](C)C3)CC1	3.49
COc1ccc(Br)cc1C(=O)NC(=S)Nc1cc(-c2nc3ccccc3[nH]2)ccc1C	55.2
CC(=O)Nc1ccc(NC(=O)[C@@H](NC(=O)c2cccc(C)c2)C(C)C)cc1	2.27
C[C@@H](NC(=O)OC(C)(C)C)c1nnc(S(=O)(=O)Cc2ccccc2)o1	6.57
NC(=O)c1ncn([C@@H]2O[C@H](C(=O)O)[C@@H](O)[C@H]2O)n1	6.54
Cc1cc(NCCc2c[nH]c3ccccc23)ccc1Oc1cccnc1	-1.7
COC(=O)C1=C(C)N(Cc2ccccc2C(F)(F)F)C(=NCc2ccc(C(F)(F)F)cc2)NC1c1ccc(F)cc1 (centres undefined)	10.2
O=C(N/N=C/c1ccc(Br)o1)c1cncc(Br)c1	-0.44
COCCNC(=S)N(C)[C@H]1C[C@H]2c3[nH]c4ccccc4c3CCN2C[C@H]1[C@H](C)O	10.3
O=C(CCNC(=O)c1ccccc1Cl)NN=Cc1ccco1	-5.52
Cc1ccc(NC(=O)N2c3ccccc3SC2c2ccco2)c(C)c1 (centres undefined)	1.82
CCOc1ccc(N/C(N)=N/c2nc(C)c(C)c(=O)[nH]2)cc1	4.59
CCOc1c(OC)cccc1C(=O)NCC1(c2ccccc2)CCCC1	-3.45
O=C(NC(=S)Nc1ccccc1C(=O)O)c1ccc(-c2ccc(Br)cc2)o1	4.88
CC(C)(C)c1ccc(S(=O)(=O)NCC2CCN(C(=O)C(=O)c3cc4ccccc4o3)CC2)cc1	-7.28
COc1ccc(C2(CNC(=O)Cc3ccc(OC)c(OC)c3)CCCC2)cc1	8.2
NC1=CC(=O)C(=O)c2cccnc21	23.6
OC(c1ccccc1)(c1ccccc1)C1CCN(CCCOc2ccc(-c3ccsc3)cc2)CC1	2.16
COc1cccc(CNC(=O)[C@H]2CCCN2C(=O)[C@H]2CCCN2C(=O)C2CCCCC2)c1	-0.26
COc1cc(OC)cc(C(=O)N[C@H](C(=O)Nc2nc3ccccc3[nH]2)C(C)C)c1	-1.15
NNC(=O)c1oc2nc(-c3ccccc3)cc(-c3ccco3)c2c1N	16.2
CCN(CC)c1ccc2cc(C(N)=O)/c(=N\NC(=O)c3ccncc3)oc2c1	30.5
Cc1ccc(C)c(NC(=O)CN(C)C(=O)COc2ccc3ccccc3c2)c1	-2.17
COc1cccc(-c2cc(CNC(=O)[C@@H](Cc3ccccc3)NC(=O)[C@H]3O[C@@H](n4cnc(C(N)=O)n4)[C@H](O)[C@@H]3O)no2)c1	0.79

Recorded values, source PubChem BioAssay AID651800.
